This section presents variants with their documented abundance fitness values.
B1: Chromodomain-helicase-DNA-binding protein 4, residues 365 to 417; numbered along this chain, Q14839 (parent)
chain: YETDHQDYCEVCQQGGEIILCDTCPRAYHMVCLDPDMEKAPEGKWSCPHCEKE

Variants of: B1
Test: abundance fitness (aPCA) (normalised: wild type 0, dead -1); higher = more abundant; growth selection in yeast, the domain comes from the species named
Conditions: Homo sapiens
measurement type: abundance fitness

INSERT INTO measurements (variant_string, test_value) VALUES
  ('M37K', -0.242),
  ('P35L', -0.191),
  ('T3V', 0.103),
  ('Y28M', 0.048),
  ('T3F', 0.059),
  ('V11S', -0.085),
  ('K52P', -0.072),
  ('P41Y', 0.022),
  ('G15E', -0.162),
  ('K52L', -0.088),
  ('C21E', -0.893),
  ('I18S', -0.081),
  ('C47H', -0.477),
  ('G16A', -0.114),
  ('D7W', -0.346),
  ('M37R', 0.054),
  ('E17Q', -0.135),
  ('V31I', -0.234),
  ('V31K', 0.027),
  ('T23F', -0.099),
  ('T23A', -0.459),
  ('A27F', -0.172),
  ('S46M', -0.197),
  ('E53L', -0.133),
  ('G15Y', -0.571),
  ('E17K', -0.153),
  ('S46R', -0.137),
  ('E17F', -0.222),
  ('C9T', -0.791),
  ('D36Q', -0.05),
  ('A40V', -0.093),
  ('I18G', -0.042),
  ('D22F', -0.129),
  ('H5W', -0.23),
  ('E42D', -0.182),
  ('M30Q', -0.287),
  ('H49S', -0.202),
  ('H29G', -0.698),
  ('C21V', -0.877),
  ('P41R', 0.123),
  ('P25W', -0.27),
  ('C21M', -0.911),
  ('K52A', -0.233),
  ('T3G', 0.13),
  ('D36M', -0.185),
  ('E17H', -0.11),
  ('D34K', -0.314),
  ('R26E', -0.356),
  ('A40I', 0.464),
  ('D7C', -1.06),
  ('E51Y', -0.221),
  ('M30H', -0.433),
  ('H29M', -0.686),
  ('E10Q', -0.358),
  ('M30V', -0.137),
  ('Y28H', 0.023),
  ('Y28D', -0.526),
  ('C21K', -0.734),
  ('T3H', -0.461),
  ('Q13K', -0.474),
  ('Q14W', -0.342),
  ('M37I', -0.023),
  ('D4A', -0.066),
  ('K52S', 0.161),
  ('G15P', -0.136),
  ('D4Q', 0.114),
  ('C32Q', -1.08),
  ('D7N', -0.183),
  ('P48A', -0.002),
  ('E42V', 0.066),
  ('E51D', -0.111),
  ('V31L', 0.258),
  ('G16S', 0.069),
  ('P41G', 0.151),
  ('G16L', -0.016),
  ('H5Q', -0.111),
  ('Q13Y', -0.117),
  ('T23R', -0.363),
  ('L33F', 0.022),
  ('M37A', -0.067),
  ('L33W', 0.024),
  ('G16V', -0.341),
  ('P41V', -0.218),
  ('P25G', -0.044),
  ('E17R', -0.115),
  ('Y8P', 0.033),
  ('Y8L', 0.031),
  ('E42L', -0.087),
  ('D4W', -0.173),
  ('T23D', -0.052),
  ('D7K', -0.075);
